Reported Ki, D(3) dopamine receptor (Homo sapiens, UniProt P35462).
Observation type: Ki (µM)

Sample records with Ki:
Molecular string: COc1ccccc1N1CCN(CNC(=O)c2ccc(Cl)cc2)CC1
Ki, µM: 0.268

Molecular string: N#Cc1ccccc1N1CCN(CNC(=O)c2ccc(Cl)cc2)CC1
Ki, µM: 0.6

Molecular string: Cc1ccc(C(=O)NCN2CCN(c3ccccc3Cl)CC2)cc1
Ki, µM: 0.049

Molecular string: COc1ccccc1N1CCN(CNC(=O)c2cccc(C)c2)CC1
Ki, µM: 2.48

a: O=C(NCN1CCN(c2ccccc2Cl)CC1)c1ccccc1
b: O=C(NCN1CCN(c2ccccc2Cl)CC1)c1ccc(Cl)cc1
IN: Which value of Ki is smaller, the one for a or the one for b ? Your answer should be the label of the entry you select.
OUT: b
